System: Fibroblast
Assay Details: Multiplex assay against human fibroblast
Type: toxicity, cell-based
Stated Conditions: 24 h, 1 µM, compound concentration 1 uM, replicate 1
Below: a set of entries, each annotated with reported Population Mitochondria Different-Phenotype (%).
Your answer is read as %, so omit the unit and give the number.

Solved cases below.
c1cc(OCCCN2CCCCC2)ccc1CN1CCCCC1 [JNJ-5207852] : 2
Cc1ccc(F)cc1C(=O)Nc1ccc(C(=O)N2Cc3cccn3Cc3ccccc32)c(Cl)c1 [LIXIVAPTAN] : 0
CCNC1(C(N)=O)CCN(c2ncnc3c2nc(-c2ccccc2Cl)n3-c2ccc(Cl)cc2)CC1 [OTENABANT] : 8

Kindly review the next compound as well.
### Prompt Any idea what its Population Mitochondria Different-Phenotype (%) is? The compound is CC1(COc2ccc3c(c2)ncn3-c2ccc3cccc(N4CCC(N)CC4)c3n2)COC1 [CRENOLANIB]
### Response 9
